Each entry below carries its recorded IC50.
Molecular target: Escherichia coli DNA gyrase A/B tetramer (Escherichia coli (strain K12), UniProt P0AES4+P0AES6)
Experiment: DNA gyrase supercoiling activity fluorescence polarisation assay
Type: biochemical
Conditions: 5 nM enzyme, relaxed plasmid, 0.3 mM ATP, ambient temperature; read-out: E. coli DNA gyrase supercoiling IC50
Numeric only. Scale: µM

Use the examples below as a reference point.
compound | value_unit | IC50
C[C@@H]1CN2c3c(cc4c(C(F)(F)F)noc4c3F)CC3(C(=O)NC(=O)NC3=O)[C@H]2[C@H](C)O1 | µM | 0.6
C[C@@H]1CN2c3c(nc4c(-c5ccc(C(N)=O)nc5)noc4c3Cl)CC3(C(=O)NC(=O)NC3=O)[C@H]2[C@H](C)O1 (relative stereo) | µM | 5.8

## Input Record request: IC50 value, item C[C@@H]1CN2c3c(nc4c(C(=O)NCc5cccc(C#N)c5)noc4c3Cl)CC3(C(=O)NC(=O)NC3=O)[C@H]2[C@H](C)O1 (relative stereo)
## Output 13

###

Target: Escherichia coli DNA gyrase A/B tetramer (Escherichia coli (strain K12), UniProt P0AES4+P0AES6)
Assay: DNA gyrase supercoiling activity fluorescence polarisation assay
Type: biochemical
Conditions: 5 nM enzyme, relaxed plasmid, 0.3 mM ATP, ambient temperature; read-out: E. coli DNA gyrase supercoiling IC50
Experimental: DNA Gyrase Supercoiling Activity Fluorescence Polarisation Assay The supercoiling reactions may be quenched by the addition of 10 microliters/well of 40 nM oligodeoxynucleotide probe in 3× triplex-forming buffer consisting of 150 mM NaCl, and 150 mM sodium acetate at pH 3.5. […] After 60 minutes, the fluorescence anisotropy of the BODIPY-FL may be measured in a Tecan Ultra plate reader, using 485 nm excitation and 535 nm emission filters equipped with polarizers. […]
Quick reference: pIC50 of the listed items.
Lab note — pIC50 values are minus log10 of concentrations in M.

compound | result
C[C@@H]1CN2c3c(cc4c(NCc5cnn(C)c5)noc4c3F)CC3(C(=O)NC(=O)NC3=O)[C@H]2[C@H](C)O1 (relative stereo) | 5.92
C[C@@H]1CN2c3c(cc4c(NCc5ccccc5)noc4c3F)CC3(C(=O)NC(=O)NC3=O)[C@H]2[C@H](C)O1 (racemic) | 5.77
C[C@@H]1CN2c3c(nc4c(C(=O)NCC(C)(C)C)noc4c3Cl)CC3(C(=O)NC(=O)NC3=O)[C@H]2[C@H](C)O1 (relative stereo) | 4.51
Cc1cnc(-c2noc3c(Cl)c4c(nc23)CC2(C(=O)NC(=O)NC2=O)[C@H]2[C@H](C)O[C@H](C)CN42)s1 (relative stereo) | 6.30
C[C@@H]1CN2c3c(cc4c(N5CCCC5)noc4c3F)CC3(C(=O)NC(=O)NC3=O)[C@H]2[C@H](C)O1 (relative stereo) | 5.82

Consider the additional compound presented here.
## Input # input compound: Cc1ccc(-c2noc3c(F)c4c(cc23)CC2(C(=O)NC(=O)NC2=O)[C@H]2[C@H](C)O[C@H](C)CN42)cn1 (relative stereo) ; wanted: its pIC50
## Output 5.72

###

Reported values of pIC50 for individual entries
Target: Escherichia coli DNA gyrase A/B tetramer (Escherichia coli (strain K12), UniProt P0AES4+P0AES6)
Assay: DNA gyrase supercoiling activity fluorescence polarisation assay
Assay type: biochemical
Conditions: 5 nM enzyme, relaxed plasmid, 0.3 mM ATP, ambient temperature; read-out: E. coli DNA gyrase supercoiling IC50
Formally, pIC50 is defined as -log10 of the concentration c, with c in mol/L.

molecule | result
C[C@@H]1CN2c3c(cc4c(-c5ccco5)noc4c3F)CC3(C(=O)NC(=O)NC3=O)[C@H]2[C@H](C)O1 (relative stereo) | 6.15
C[C@@H]1CN2c3c(cc4c(N5CCNCC5)noc4c3F)CC3(C(=O)NC(=O)NC3=O)[C@H]2[C@H](C)O1 (relative stereo) | 5.70

## Input For COCCNc1nccc(-c2noc3c(F)c4c(cc23)CC2(C(=O)NC(=O)NC2=O)[C@H]2[C@H](C)O[C@H](C)CN42)n1 , what is its reported pIC50?
## Output 6.15

Where do these numbers come from? They come from patent US9040528B2.
